All figures here come from PubChem BioAssay.

- tgt: Calmodulin-1 (Homo sapiens) (UniProt P0DP23)
- experiment-summary: small molecules binding calmodulin-1 with EGTA – biochemical, small-molecule microarray, Cy5-labelled CALM1, profiling panel (AID 1111);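 further: labelled calmodulin applied in Tris saline Tween buffer holding calcium plus EGTA and DTT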
- test-settings: Cy5-CALM1 binding fluorescence, higher = more signal
composite z-score reference
The reply should be a number, written without any unit.

Known results for compounds:
Task item: Hi! What's the reported composite z-score for CC(C)(C)OC(=O)CC[C@@]1(C(=O)NCC(O)CO)N=C(c2ccc(OCCCO)cc2)O[C@@H]1c1ccccc1 (some centres undefined) on Calmodulin-1 (Homo sapiens) (UniProt P0DP23)?
Reply: -0.0155

Task item: Provide the documented composite z-score with Calmodulin-1 (Homo sapiens) (UniProt P0DP23) as the system for CCCC[C@H]1C[C@@H]1[C@@H]1N(P(=O)(c2ccccc2)c2ccccc2)[C@](CO)(c2ccccc2)CC12CC2
Reply: 1.85

Task item: Request: composite z-score, test system Calmodulin-1 (Homo sapiens) (UniProt P0DP23), entry Cc1ccc(S[C@]2(C(=O)NCC(F)(F)F)CC(=O)N(C3Cc4ccccc4C3)[C@@H]2c2ccc(CO)cc2I)cc1
Reply: -0.0026

Now take the following compound into account.
Task item: Look up composite z-score with Calmodulin-1 (Homo sapiens) (UniProt P0DP23) for this compound: CC(C)(C)OC(=O)CC[C@]1(C(=O)NCC(O)CO)N=C(c2ccc(OCCCO)cc2)O[C@H]1c1ccccc1CN=[N+]=[N-] (some centres undefined)
Reply: 2.52
